Tested on: Bacillus subtilis ATCC 23857
Known MIC of a selection of compounds
// return numeric value only (unit: µM, not printed)

Reference set, count: 3
INSERT INTO measurements (compound, outcome_measure, recorded_value) VALUES
  ('NCCCC[C@H](NC(=O)[C@H](CCCCN)NC(=O)[C@H](Cc1c[nH]c2ccccc12)NC(=O)[C@H](CCCN=C(N)N)NC(=O)[C@H](CCCCN)NC(=O)[C@H](Cc1c[nH]c2ccccc12)NC(=O)[C@H](Cc1c[nH]c2ccccc12)NC(=O)[C@@H](N)CCCCN)C(=O)N[C@@H](Cc1c[nH]c2ccccc12)C(=O)N[C@@H](Cc1c[nH]c2ccccc12)C(N)=O [KWWKRWKKWW]', 'MIC', 4),
  ('CC(C)C[C@H](NC(=O)[C@H](CCCN=C(N)N)NC(=O)[C@H](Cc1c[nH]c2ccccc12)NC(=O)[C@H](Cc1c[nH]c2ccccc12)NC(=O)[C@H](Cc1c[nH]c2ccccc12)NC(=O)[C@H](CCCN=C(N)N)NC(=O)[C@@H](N)CC(C)C)C(N)=O [LRWWWRL]', 'MIC', 8),
  ('CC[C@H](C)[C@H](N)C(=O)N[C@@H](CC(C)C)C(=O)NCC(=O)N[C@H](C(=O)N[C@H](C(=O)N[C@@H](CC(C)C)C(=O)NCC(=O)N[C@@H](CC(C)C)C(=O)N[C@@H](CC(C)C)C(=O)N[C@@H](CCCCN)C(=O)N[C@@H](Cc1ccccc1)C(=O)N[C@@H](CC(C)C)C(N)=O)[C@@H](C)CC)[C@@H](C)O [ILGTILGLLKFL]', 'MIC', 4);

Prompt: Recorded MIC for CSCC[C@H](NC(=O)[C@H](Cc1ccccc1)NC(=O)CNC(=O)[C@H](Cc1cnc[nH]1)NC(=O)[C@H](CC(C)C)NC(=O)[C@H](CO)NC(=O)CN)C(=O)N[C@@H](Cc1ccc(O)cc1)C(=O)N[C@@H](CCCCN)C(=O)N[C@@H](Cc1ccc(O)cc1)C(=O)N[C@@H](CC(C)C)C(=O)N[C@@H](CCCCN)C(=O)N[C@@H](CC(N)=O)C(=O)N[C@@H](CCSC)C(=O)N[C@H](C(=O)N[C@@H](CC(C)C)C(=O)N[C@H](C(=O)N[C@@H](CC(C)C)C(=O)N[C@@H](Cc1ccccc1)C(N)=O)[C@@H](C)O)C(C)C [GSLHGFMYKYLKNMVLTLF] , please?
Response: 16

* * *

Tested on: Bacillus subtilis ATCC 23857
Experiment: ≥ marks a high value that may be exact or a test limit, other limits are often not marked, values filed in µg/mL are converted to µM
OUTCOME_MEASURE: MIC (µM)
// return numeric value only (unit: µM, not printed)

Prompt: Recorded MIC for CC[C@H](C)[C@H](NC(=O)[C@H](CCCN=C(N)N)NC(=O)[C@H](CCCCN)NC(=O)[C@H](Cc1ccccc1)NC(=O)[C@H](Cc1c[nH]c2ccccc12)NC(=O)CN)C(=O)N[C@@H](CCCCN)C(=O)N[C@H](C(=O)N[C@@H](Cc1ccccc1)C(=O)N[C@@H](Cc1c[nH]c2ccccc12)C(N)=O)[C@@H](C)O , please?
Response: 4

* * *

Target or system Salmonella enterica subsp. enterica serovar Typhimurium ATCC 14028; recorded quantity MIC.
// return numeric value only (unit: µM, not printed)

Reference set, count: 5
INSERT INTO assay_data (smiles_entry, experimental_system, outcome_measure, measure_unit, recorded_value) VALUES
  ('CC[C@H](C)[C@H](NC(=O)[C@@H]1CCCN1C(=O)[C@H](CCCN=C(N)N)NC(=O)[C@@H]1CCCN1C(=O)[C@H](Cc1cnc[nH]1)NC(=O)[C@H](CO)NC(=O)[C@@H](NC(=O)[C@@H]1CCCN1C(=O)[C@H](CCCN=C(N)N)NC(=O)[C@@H]1CCCN1C(=O)[C@H](CO)NC(=O)[C@H](Cc1ccc(O)cc1)NC(=O)[C@@H]1CCCN1C(=O)[C@H](CCCCN)NC(=O)[C@@H]1CCCN1C(=O)[C@H](CCCCN)NC(=O)CN)[C@@H](C)O)C(=O)N[C@@H](CCCN=C(N)N)C(=O)N[C@H](C(=O)O)C(C)C', 'Salmonella enterica subsp. enterica serovar Typhimurium ATCC 14028', 'MIC', 'µM', 4),
  ('CC(C)C[C@H](N)C(=O)N[C@@H](Cc1ccc(O)cc1)C(=O)N[C@@H](CCCN=C(N)N)C(=O)N[C@@H](CCCN=C(N)N)C(=O)N[C@@H](CCCN=C(N)N)C(=O)N[C@@H](Cc1ccccc1)C(=O)N[C@H](C(=O)N[C@H](C(=O)NCC(=O)N[C@@H](CCCN=C(N)N)C(N)=O)C(C)C)C(C)C', 'Salmonella enterica subsp. enterica serovar Typhimurium ATCC 14028', 'MIC', 'µM', 200),
  ('CC[C@H](C)[C@H](NC(=O)[C@H](CCCN=C(N)N)NC(=O)[C@H](CCC(N)=O)NC(=O)[C@H](Cc1c[nH]c2ccccc12)NC(=O)[C@@H](NC(=O)[C@H](CCCCN)NC(=O)[C@@H](N)CCCCN)[C@@H](C)CC)C(=O)N[C@@H](CCCCN)C(=O)N[C@@H](CC(N)=O)C(=O)N[C@@H](Cc1ccccc1)C(=O)N[C@@H](Cc1ccccc1)C(=O)N[C@@H](CCC(N)=O)C(=O)N[C@@H](CCCCN)C(=O)N[C@@H](CC(C)C)C(=O)O', 'Salmonella enterica subsp. enterica serovar Typhimurium ATCC 14028', 'MIC', 'µM', 29),
  ('CC(C)C[C@H](NC(=O)[C@H](CC(C)C)NC(=O)[C@H](Cc1c[nH]c2ccccc12)NC(=O)[C@H](CCCCN)NC(=O)[C@H](CC(C)C)NC(=O)[C@H](CC(C)C)NC(=O)[C@H](Cc1c[nH]c2ccccc12)NC(=O)[C@H](CCCCN)NC(=O)[C@@H](N)CC(C)C)C(N)=O', 'Salmonella enterica subsp. enterica serovar Typhimurium ATCC 14028', 'MIC', 'µM', 8.25),
  ('CC[C@H](C)[C@H](NC(=O)CN)C(=O)N[C@@H](CCCN=C(N)N)C(=O)N[C@@H](CC(=O)O)C(=O)N[C@H](C(=O)N[C@@H](CC(C)C)C(=O)N[C@@H](CCCCN)C(=O)N[C@@H](Cc1ccc(O)cc1)C(=O)NCC(=O)N[C@@H](CCCCN)C(=O)N1CCC[C@H]1C(=O)N[C@@H](CO)C(N)=O)[C@@H](C)CC', 'Salmonella enterica subsp. enterica serovar Typhimurium ATCC 14028', 'MIC', 'µM', 5);

Field: next molecule
Prompt: Recorded MIC for CC[C@H](C)[C@H](NC(=O)CN)C(=O)N[C@@H](Cc1cnc[nH]1)C(=O)N[C@@H](CC(=O)O)C(=O)N[C@H](C(=O)N[C@@H](CC(C)C)C(=O)N[C@@H](CCCCN)C(=O)N[C@@H](Cc1ccc(O)cc1)C(=O)N[C@@H](C)C(=O)N[C@@H](CCCCN)C(=O)N1CCC[C@H]1C(=O)N[C@@H](CO)C(N)=O)[C@@H](C)CC , please?
Response: 10

* * *

Known MIC of a selection of compounds
Test system: Candida albicans ATCC 10231
// return numeric value only (unit: µM, not printed)

Reference set, count: 2
INSERT INTO results (smiles_entry, outcome_measure, recorded_value) VALUES
  ('CC(C)[C@H](NC(=O)[C@H](CCCCN)NC(=O)[C@H](C)NC(=O)[C@@H](NC(=O)[C@@H](NC(=O)[C@H](CCCN=C(N)N)NC(=O)[C@H](C)NC(=O)[C@H](Cc1c[nH]c2ccccc12)NC(=O)[C@H](Cc1c[nH]c2ccccc12)NC(=O)CN)[C@@H](C)O)C(C)C)C(=O)N[C@@H](CCCN=C(N)N)C(=O)N[C@@H](CCCCN)C(N)=O', 'MIC', 25),
  ('CC[C@H](C)[C@H](NC(=O)[C@H](CCCCN)NC(=O)[C@H](CCCCN)NC(=O)[C@@H](NC(=O)[C@@H](NC(=O)[C@H](CC(=O)O)NC(=O)[C@H](Cc1ccccc1)NC(=O)[C@H](C)NC(=O)CN)[C@@H](C)CC)[C@@H](C)CC)C(=O)N[C@@H](C)C(=O)N[C@@H](CCC(=O)O)C(=O)N[C@@H](CO)C(=O)N[C@@H](Cc1ccccc1)C(N)=O', 'MIC', 178);

Field: next compound
Prompt: Recorded MIC for CC[C@H](C)[C@H](NC(=O)CNC(=O)[C@H](CO)NC(=O)[C@H](CC(C)C)NC(=O)[C@@H](NC(=O)[C@H](CCCN=C(N)N)NC(=O)[C@H](C)NC(=O)[C@@H](NC(=O)[C@H](CC(C)C)NC(=O)[C@@H]1CCCN1C(=O)[C@H](CC(C)C)NC(=O)[C@@H](N)Cc1ccccc1)[C@@H](C)CC)C(C)C)C(=O)N[C@@H](CC(C)C)C(N)=O , please?
Response: 2.5
